B1: RHOBTB3 (parent)
chain: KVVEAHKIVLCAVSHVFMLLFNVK

- Variants of: B1
- protocol_notes: protein stability index of a GFP-peptide fusion (GPS, HEK-293T) (PSI 1-6); higher = more stable;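 further: lentivirally expressed fusions sorted by FACS into six bins by GFP to DsRed ratio, PSI derived from sequencing read proportions per bin multiplied by bin number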
- assay_conditions: c terminus: a fixed tail appended
measured_quantity: protein stability index

- changes: "H6K"
  measured_quantity: "protein stability index"
  value_observed: 2.65
- changes: "F17R"
  measured_quantity: "protein stability index"
  value_observed: 2.23
- changes: "L19S"
  measured_quantity: "protein stability index"
  value_observed: 2.2
- changes: "L10A"
  measured_quantity: "protein stability index"
  value_observed: 1.75
- changes: "K24Y"
  measured_quantity: "protein stability index"
  value_observed: 2.57
- changes: "K1P"
  measured_quantity: "protein stability index"
  value_observed: 3.1
- changes: "K7R"
  measured_quantity: "protein stability index"
  value_observed: 2.65
- changes: "I8E"
  measured_quantity: "protein stability index"
  value_observed: 1.98
- changes: "A5N"
  measured_quantity: "protein stability index"
  value_observed: 2.07
- changes: "V9W"
  measured_quantity: "protein stability index"
  value_observed: 3.46
- changes: "E4I"
  measured_quantity: "protein stability index"
  value_observed: 2.78
- changes: "H6N"
  measured_quantity: "protein stability index"
  value_observed: 3.4
- changes: "A12F"
  measured_quantity: "protein stability index"
  value_observed: 2.55
- changes: "V13I"
  measured_quantity: "protein stability index"
  value_observed: 2.66
- changes: "V9T"
  measured_quantity: "protein stability index"
  value_observed: 2.47
- changes: "A5H"
  measured_quantity: "protein stability index"
  value_observed: 2.9
- changes: "N22C"
  measured_quantity: "protein stability index"
  value_observed: 2.31
- changes: "S14D"
  measured_quantity: "protein stability index"
  value_observed: 2.17
- changes: "H6R"
  measured_quantity: "protein stability index"
  value_observed: 3.29
- changes: "A12G"
  measured_quantity: "protein stability index"
  value_observed: 2.92
- changes: "L20K"
  measured_quantity: "protein stability index"
  value_observed: 1.89
- changes: "K24N"
  measured_quantity: "protein stability index"
  value_observed: 4.04
- changes: "V2M"
  measured_quantity: "protein stability index"
  value_observed: 2.9
- changes: "H6T"
  measured_quantity: "protein stability index"
  value_observed: 1.79
- changes: "N22G"
  measured_quantity: "protein stability index"
  value_observed: 2.71
- changes: "V23L"
  measured_quantity: "protein stability index"
  value_observed: 2.62
- changes: "K1Y"
  measured_quantity: "protein stability index"
  value_observed: 2.58
- changes: "M18H"
  measured_quantity: "protein stability index"
  value_observed: 2.34
- changes: "V23D"
  measured_quantity: "protein stability index"
  value_observed: 2.29
- changes: "V9E"
  measured_quantity: "protein stability index"
  value_observed: 2.79
- changes: "V23Y"
  measured_quantity: "protein stability index"
  value_observed: 3.03
- changes: "A5K"
  measured_quantity: "protein stability index"
  value_observed: 2.58
- changes: "V23C"
  measured_quantity: "protein stability index"
  value_observed: 2.47
- changes: "K1N"
  measured_quantity: "protein stability index"
  value_observed: 2.52
- changes: "K7M"
  measured_quantity: "protein stability index"
  value_observed: 2.93
- changes: "K7D"
  measured_quantity: "protein stability index"
  value_observed: 3.98
- changes: "V3D"
  measured_quantity: "protein stability index"
  value_observed: 2.2
- changes: "N22D"
  measured_quantity: "protein stability index"
  value_observed: 3.27
- changes: "F17T"
  measured_quantity: "protein stability index"
  value_observed: 2.9
- changes: "F17K"
  measured_quantity: "protein stability index"
  value_observed: 2.76
- changes: "A12R"
  measured_quantity: "protein stability index"
  value_observed: 2.33
- changes: "M18C"
  measured_quantity: "protein stability index"
  value_observed: 2.3
- changes: "V2N"
  measured_quantity: "protein stability index"
  value_observed: 2.44
- changes: "V13R"
  measured_quantity: "protein stability index"
  value_observed: 3.01
- changes: "H6V"
  measured_quantity: "protein stability index"
  value_observed: 1.77
- changes: "K7V"
  measured_quantity: "protein stability index"
  value_observed: 2.31
- changes: "V23F"
  measured_quantity: "protein stability index"
  value_observed: 2.99
- changes: "V3I"
  measured_quantity: "protein stability index"
  value_observed: 3.11
- changes: "A5Q"
  measured_quantity: "protein stability index"
  value_observed: 4.3
- changes: "A12N"
  measured_quantity: "protein stability index"
  value_observed: 3.15
- changes: "K24F"
  measured_quantity: "protein stability index"
  value_observed: 2.39
- changes: "L10N"
  measured_quantity: "protein stability index"
  value_observed: 3.5
- changes: "A12E"
  measured_quantity: "protein stability index"
  value_observed: 2.31
- changes: "K1A"
  measured_quantity: "protein stability index"
  value_observed: 3.06
- changes: "L20N"
  measured_quantity: "protein stability index"
  value_observed: 3.15
- changes: "V9I"
  measured_quantity: "protein stability index"
  value_observed: 2.87
- changes: "L19R"
  measured_quantity: "protein stability index"
  value_observed: 3.74
- changes: "F21P"
  measured_quantity: "protein stability index"
  value_observed: 1.98
- changes: "C11V"
  measured_quantity: "protein stability index"
  value_observed: 3.24
- changes: "A5L"
  measured_quantity: "protein stability index"
  value_observed: 1.76
- changes: "E4F"
  measured_quantity: "protein stability index"
  value_observed: 2.23
- changes: "V23W"
  measured_quantity: "protein stability index"
  value_observed: 2.5
- changes: "H15F"
  measured_quantity: "protein stability index"
  value_observed: 2.06
- changes: "V2Y"
  measured_quantity: "protein stability index"
  value_observed: 1.86
- changes: "C11T"
  measured_quantity: "protein stability index"
  value_observed: 1.99
- changes: "C11I"
  measured_quantity: "protein stability index"
  value_observed: 4.05
- changes: "A12K"
  measured_quantity: "protein stability index"
  value_observed: 2.92
- changes: "A5D"
  measured_quantity: "protein stability index"
  value_observed: 3.37
- changes: "A5E"
  measured_quantity: "protein stability index"
  value_observed: 3.14
- changes: "V2E"
  measured_quantity: "protein stability index"
  value_observed: 2.64
- changes: "A12M"
  measured_quantity: "protein stability index"
  value_observed: 2.2
- changes: "V2S"
  measured_quantity: "protein stability index"
  value_observed: 3.24
- changes: "V13L"
  measured_quantity: "protein stability index"
  value_observed: 2.12
- changes: "M18T"
  measured_quantity: "protein stability index"
  value_observed: 2.23
- changes: "K1L"
  measured_quantity: "protein stability index"
  value_observed: 3.15
- changes: "F17E"
  measured_quantity: "protein stability index"
  value_observed: 3.12
- changes: "K7T"
  measured_quantity: "protein stability index"
  value_observed: 2.64
- changes: "H6S"
  measured_quantity: "protein stability index"
  value_observed: 1.92
- changes: "L20I"
  measured_quantity: "protein stability index"
  value_observed: 1.74
- changes: "K1R"
  measured_quantity: "protein stability index"
  value_observed: 2.68
- changes: "V23I"
  measured_quantity: "protein stability index"
  value_observed: 2.57
- changes: "M18F"
  measured_quantity: "protein stability index"
  value_observed: 3.57
- changes: "V16H"
  measured_quantity: "protein stability index"
  value_observed: 2.98
- changes: "I8G"
  measured_quantity: "protein stability index"
  value_observed: 2.84
- changes: "V9Y"
  measured_quantity: "protein stability index"
  value_observed: 1.64
- changes: "A12I"
  measured_quantity: "protein stability index"
  value_observed: 1.96
- changes: "K1H"
  measured_quantity: "protein stability index"
  value_observed: 2.2
- changes: "S14H"
  measured_quantity: "protein stability index"
  value_observed: 3.58
- changes: "V3L"
  measured_quantity: "protein stability index"
  value_observed: 2.09
- changes: "V9Q"
  measured_quantity: "protein stability index"
  value_observed: 2.73
- changes: "V16Q"
  measured_quantity: "protein stability index"
  value_observed: 3.14
